target: pregnane X receptor PXR (Homo sapiens, UniProt O75469); conditions: read-out: PXR antagonist IC50; transfected LS174T cells; 24 h; in the presence of RIF (10 µM)
Sequence (O75469 whole entry): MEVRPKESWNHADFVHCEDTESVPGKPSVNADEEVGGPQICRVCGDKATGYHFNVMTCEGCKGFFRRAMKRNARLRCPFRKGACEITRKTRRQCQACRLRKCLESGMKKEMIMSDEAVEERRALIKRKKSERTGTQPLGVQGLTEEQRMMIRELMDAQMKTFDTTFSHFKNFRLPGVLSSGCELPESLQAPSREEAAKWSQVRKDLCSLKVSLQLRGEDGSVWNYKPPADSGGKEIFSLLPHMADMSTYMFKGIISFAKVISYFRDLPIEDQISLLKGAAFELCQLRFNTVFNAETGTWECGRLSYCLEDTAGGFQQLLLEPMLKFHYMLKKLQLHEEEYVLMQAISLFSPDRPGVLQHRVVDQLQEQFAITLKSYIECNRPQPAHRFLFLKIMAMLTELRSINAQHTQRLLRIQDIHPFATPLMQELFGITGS
MEASUREMENT_NAME: IC50 (µM)
Response body: numeric value in µM, unit text excluded.

Need IC50, item CC(=O)N1CCN(c2ccc(OC[C@H]3CO[C@](Cn4ccnc4)(c4ccc(Cl)cc4Cl)O3)cc2)CC1 [(+)-KET, (2R,4S)-(+)-KET]
41.2

* * *

test system: LS174T cells; assay: MTT cytotoxicity test in LS174T cells; settings: read-out: MTT test IC50 (cytotoxicity); LS174T cells; 24 h incubation
MEASUREMENT_NAME: pIC50
Please express pIC50 as -log10 of the molar concentration.

Need pIC50, item CC(=O)N1CCN(c2ccc(OC[C@H]3CO[C@](Cn4ccnc4)(c4ccc(Cl)cc4Cl)O3)cc2)CC1 [(+)-KET, (2R,4S)-(+)-KET]
4.28

* * *

IC50 at 24 h values, listed per item
assay: MTT cytotoxicity test in LS174T cells; settings: human

>  <MOLECULE>
CC(=O)N1CCN(c2ccc(OC[C@@H]3CO[C@@](Cn4ccnc4)(c4ccc(Cl)cc4Cl)O3)cc2)CC1 [(−)-KET, (2S,4R)-(−)-KET]

>  <IC50 at 24 h>
57.5 µM

$$$$

Pending molecule:
Need IC50 at 24 h, item CC(=O)N1CCN(c2ccc(OCC3COC(Cn4ccnc4)(c4ccc(Cl)cc4Cl)O3)cc2)CC1 (racemic) [(rac)-KET, ketoconazole]
50.3 µM
